Values were extracted from the supplement of paper PMC8671470.

System: BV-173
Settings: 72 h
MEASURED_PARAMETER: IC50 (cell viability) (µM)
Give just the numeric value; µM need not be written.

Worked cases, answers included:
Entry under review: O=C1O/C(=C/Br)CCC1c1cccc2ccccc12 (stereo unspecified) . Reported IC50 (cell viability)? 4.15

Now try `COC(=O)[C@]12CCC(C)(C)C[C@H]1[C@H]1C(=O)C=C3[C@@]4(C)C=C(C#N)C(=O)C(C)(C)[C@@H]4CC[C@@]3(C)[C@]1(C)CC2` . 1.22

Now try Cc1cn([C@H]2C[C@H](O)[C@@H](COP(=O)(O)OP(=O)(O)O)O2)c(=O)[nH]c1=O [Thymidine diphosphate] . 4.03

Now try `COc1cc(/C=C/C(=O)N2CCC=CC2=O)cc(OC)c1OC` . 1.62

Now try `CC(C)c1cc2c(c(O)c1O)[C@@]1(C(=O)O)CCCC(C)(C)[C@@H]1CC2` . 5.01

***
Entry under review: `CC[C@@]1(O)C(=O)OCc2c1cc1n(c2=O)Cc2cc3c(CN(C)C)c(O)ccc3nc2-1` . Reported IC50 (cell viability)? 0.0114
